Source listed as patent US12281162.

- Tested on: T1, human G-protein-coupled receptor family C group 5 member D (GPRC5D) (human, UniProt Q9NZD1 1-345)
- T1 construct: whole, on cells; also called human GPRC5D protein
- T1 sequence (Q9NZD1 whole entry): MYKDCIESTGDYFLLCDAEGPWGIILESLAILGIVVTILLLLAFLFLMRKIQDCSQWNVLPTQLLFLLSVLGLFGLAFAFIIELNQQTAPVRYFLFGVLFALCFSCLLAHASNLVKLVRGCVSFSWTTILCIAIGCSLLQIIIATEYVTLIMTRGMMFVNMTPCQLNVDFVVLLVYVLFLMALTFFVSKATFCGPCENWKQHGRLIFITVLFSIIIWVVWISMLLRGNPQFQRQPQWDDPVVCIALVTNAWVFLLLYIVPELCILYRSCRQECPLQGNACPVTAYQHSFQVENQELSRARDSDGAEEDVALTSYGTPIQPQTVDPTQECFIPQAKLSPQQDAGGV
- Assay info: FACS, NCI-H929 cells
Metric: LogEC50
The answer should be a number; do not append a unit.

[[record]]
binder = "58F9G10-XI (antibody, V domains shown, also called 58F9G10 (chimeric); 58-XI) VH: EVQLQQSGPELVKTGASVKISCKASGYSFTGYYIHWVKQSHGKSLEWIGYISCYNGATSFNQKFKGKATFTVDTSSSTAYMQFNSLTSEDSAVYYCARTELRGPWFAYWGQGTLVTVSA VL: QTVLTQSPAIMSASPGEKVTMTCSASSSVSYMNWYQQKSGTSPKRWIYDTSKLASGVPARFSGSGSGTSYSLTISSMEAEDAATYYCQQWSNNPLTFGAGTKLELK"
metric = "LogEC50"
test_value = 0.16

[[record]]
binder = "37B9C4-XI (antibody, V domains shown, also called 37B9C4 (chimeric); 37-XI) VH: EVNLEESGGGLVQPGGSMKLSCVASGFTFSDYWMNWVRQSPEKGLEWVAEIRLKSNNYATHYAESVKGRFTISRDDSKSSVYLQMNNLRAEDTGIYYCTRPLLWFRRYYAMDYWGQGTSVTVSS VL: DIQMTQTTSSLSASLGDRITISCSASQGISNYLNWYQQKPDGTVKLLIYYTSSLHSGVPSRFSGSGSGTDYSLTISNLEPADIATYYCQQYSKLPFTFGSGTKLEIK"
metric = "LogEC50"
test_value = -0.0562


Attention now turns to another entry.
The binder identified as 37-H1L1 (antibody, V domains shown, humanized 37B9C4, VH v1 x VL v1; also called 37B9C4 (H1L1)) VH: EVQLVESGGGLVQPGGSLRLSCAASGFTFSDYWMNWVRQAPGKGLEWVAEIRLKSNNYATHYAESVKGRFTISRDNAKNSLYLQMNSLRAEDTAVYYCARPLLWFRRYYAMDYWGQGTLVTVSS VL: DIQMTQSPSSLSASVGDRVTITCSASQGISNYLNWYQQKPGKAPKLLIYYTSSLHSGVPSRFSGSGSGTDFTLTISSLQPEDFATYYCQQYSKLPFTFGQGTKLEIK registered its LogEC50 at -0.199
